- experimental.system: Follistatin (Homo sapiens) (UniProt P19883)
- Sequence (P19883 whole entry, looked up): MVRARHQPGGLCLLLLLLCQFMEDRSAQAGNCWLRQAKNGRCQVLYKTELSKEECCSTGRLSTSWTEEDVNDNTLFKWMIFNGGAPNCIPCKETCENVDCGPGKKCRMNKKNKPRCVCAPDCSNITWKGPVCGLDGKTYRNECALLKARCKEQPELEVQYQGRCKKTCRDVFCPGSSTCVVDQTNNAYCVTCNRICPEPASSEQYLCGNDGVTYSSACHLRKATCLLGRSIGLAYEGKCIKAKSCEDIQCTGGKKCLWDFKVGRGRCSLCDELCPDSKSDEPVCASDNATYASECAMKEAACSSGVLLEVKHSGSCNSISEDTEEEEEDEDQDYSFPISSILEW
- protocol.text: follistatin binders on small-molecule microarrays, primary screen, biochemical, small-molecule microarray, 635/667 nm fluorescence (AID 1132)
- condition.set: FST binding, 635 nm fluorescence, higher = more signal
composite z-score values by entry
# answer = number (no unit)

Some entries whose results are on file:
# molecule, composite z-score
records = [
    ("CC1CC/C=C\\[C@H]2OC34C=CCN(C(C)C)C(=O)[C@H]3N(C(C)CO)C(=O)[C@@H]4C2C(=O)O1 (stereo not given in full)", 0.305),
    ("CC(C)C[C@@H]1NC(=O)[C@H]2C[C@@H](C(=O)O)[C@@H](c3cccc(OCCO)c3)N2C1=O", 1.3),
    ("CCOC(=O)C1=CCC(c2ccncc2)N(S(=O)(=O)c2ccc(C)cc2)C1 (stereo not given)", 0.844),
    ("O=C(NCCN1CCOCC1)[C@@H]1c2ccccc2C(=O)N(CC23CC4CC(CC(C4)C2)C3)[C@H]1c1ccc(CO)cc1", 0.99),
]

input: Consider the molecule shown here: CC(C)Cc1ccc(CN2CC[C@@H](NC(=O)c3ccccc3)C2)cc1 What is its recorded composite z-score?
output: -0.0213

----------
- experimental.system: Follistatin-related protein 3 (Homo sapiens) (UniProt O95633)
- Sequence (O95633 whole entry, looked up): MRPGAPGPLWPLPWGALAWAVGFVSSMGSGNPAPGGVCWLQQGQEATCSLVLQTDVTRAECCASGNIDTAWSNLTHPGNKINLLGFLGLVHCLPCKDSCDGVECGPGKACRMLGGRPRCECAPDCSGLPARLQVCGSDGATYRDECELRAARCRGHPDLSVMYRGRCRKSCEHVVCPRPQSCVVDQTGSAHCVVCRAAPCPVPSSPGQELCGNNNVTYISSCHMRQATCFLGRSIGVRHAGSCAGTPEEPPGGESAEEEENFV
- protocol.text: FSTL3 binders on small-molecule microarrays, primary screen, biochemical, small-molecule microarray, 635 nm fluorescence (AID 1105);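 further: score merges emission near 667 nm and signal to noise per printed spot across three slides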
- condition.set: FSTL3 binding, higher = more signal
composite z-score values by entry

Some entries whose results are on file:
# compound, experimental.system, experimental.result
data = [
    ("CC(C)C(=C=CC[C@H](O)c1cccc(OCCO)c1)C[C@H](O)c1ccccn1", "Follistatin-related protein 3 (Homo sapiens) (UniProt O95633)", 0.339),
    ("C=C(/C=C\\CNS(=O)(=O)c1ccc(C)cc1)[C@H](O)[C@H]1CCCN1S(=O)(=O)c1ccccc1[N+](=O)[O-]", "Follistatin-related protein 3 (Homo sapiens) (UniProt O95633)", 0.122),
    ("C[N+](C)(C)CCCC[C@@H]1NC(=O)[C@H]2C[C@@H](C(=O)O)[C@@H](c3ccc(O)cc3)N2C1=O", "Follistatin-related protein 3 (Homo sapiens) (UniProt O95633)", 0.0506),
]

input: Consider the compound shown here: COCCOC(=O)N1C(=O)[C@@]2(c3cc(C#CCNC(N)=O)ccc31)[C@H](C(=O)Nc1nc3ccccc3s1)[C@H]1C(=O)O[C@H](c3ccccc3)[C@H](c3ccccc3)N1[C@@H]2c1ccc(O)cc1 What is its recorded composite z-score?
output: 0.783

input: Consider the compound shown here: COC(=O)[C@@]1(Cc2ccc(OC)cc2)[C@@H]2[C@@H](CC(=O)[C@H]2CC(=O)C(=O)N(C)C)CN1C(=O)c1ccccc1 What is its recorded composite z-score?
output: 1.17

input: Consider the compound shown here: O=C1NC(=O)C2C1C=CC(C(O)C(c1ccccc1)c1ccccc1)N2Nc1ccccn1 (configuration not stated) What is its recorded composite z-score?
output: 0.503

input: Consider the compound shown here: COC(=O)[C@@]1(Cc2ccc(F)cc2)[C@H]2c3cc(C(=O)N4CCCC4)n(Cc4ccc(C(F)(F)F)nc4)c3C[C@H]2CN1C(=O)c1ccccc1 What is its recorded composite z-score?
output: 1.19
